This section presents molecules with their documented m6A fold change relative to control group 1 values.
Tested on: HaCat cells
EXPERIMENT_DESCRIPTION: m6A methylation level of human HaCat keratinocytes, EpiQuik m6A RNA methylation quantification kit (Example 20)
Assay type: cell-based
MEASUREMENT_CONTEXT: HaCat cells, 50 nM docetaxel + 400 nM test compound, 24 hours
Experimental: HaCat cells were cultured in a DMEM culture medium containing 10% fetal bovine serum, 100 U/mL penicillin, and 100 μg/mL streptomycin. Culture dishes were placed in an incubator containing 5% CO2 for culture at 37° C. for 24 hours. […] Total RNA was extracted using a Trizol reagent (Sigma Aldrich), and RNA m6A methylation of a sample was quantitatively detected using an EpiQuik m6A RNA methylation quantification kit. […] The absorbance at 450 nm was read using a microplate reader (Tecan GENios). […]
Just the number, please, no unit attached.

Use these answered entries as a reference point.
[ask] Can you share its m6A fold change relative to control group 1? I mean this molecule: NC(=O)C1CCCc2c1[nH]c1cc(F)c(Cl)cc21 (centres unmarked)
[reply] 3.2

[ask] Next up: NC(=O)C1CCCc2c1[nH]c1cc(Nc3ccccc3)c(Cl)cc21 (centres unmarked)
[reply] 3.9

[ask] Next up: NC(=O)C1c2[nH]c3ccc(Cl)cc3c2C2CCC1C2 (centres unmarked) [Compound 5a]
[reply] 1.0

[ask] Next up: NC(=O)C1CCCc2c1[nH]c1ccc(F)cc21 (centres unmarked)
[reply] 3.2

[ask] Next up: NC(=O)C1CCCc2c1[nH]c1ccc(Cl)c(F)c21 (centres unmarked)
[reply] 4.2

Others:
[ask] Can you share its m6A fold change relative to control group 1? I mean this molecule: CN1CCC(C(N)=O)c2[nH]c3ccc(Cl)cc3c21 (centres unmarked)
[reply] 3.0

[ask] Next up: NC(=O)c1cccnc1 [Nicotinamide, nicotinamide]
[reply] 5.4

[ask] Next up: CN1CC[C@H](C(N)=O)c2[nH]c3ccc(Cl)cc3c21
[reply] 1.2

[ask] Next up: NC(=O)C1CCC(F)c2c1[nH]c1ccc(Cl)cc21 (centres unmarked)
[reply] 3.4

[ask] Next up: NC(=O)C1c2[nH]c3ccc(Cl)cc3c2C2CCC1C2 (centres unmarked) [Compound 5b]
[reply] 4.8

[ask] Next up: CN1CC[C@@H](C(N)=O)c2[nH]c3ccc(Cl)cc3c21
[reply] 4.8

[ask] Next up: NC(=O)C1CCCc2c1[nH]c1ccc(Cl)cc21 (centres unmarked)
[reply] 3.3

[ask] Next up: CC1CCC(C(N)=O)c2[nH]c3ccc(Cl)cc3c21 (centres unmarked)
[reply] 5.1

====

System: paw plantar skin of rats
EXPERIMENT_DESCRIPTION: Rat models with hand-foot skin reaction, topical ointment (Example 22)
Type: in vivo, SD rats
MEASUREMENT_CONTEXT: erlotinib 70 mg/kg; 1% compound ointment on left paw; right paw (blank matrix ointment); 30 days
PARAMETER: Incidence rate

[ask] Can you share its Incidence rate? I mean this compound: NC(=O)[C@H]1CCCc2c1[nH]c1ccc(Cl)cc21 [Compound 2b]
[reply] 10/12 (83%)

[ask] Next up: CN1CC[C@H](C(N)=O)c2[nH]c3ccc(Cl)cc3c21 [Compound 8b]
[reply] 10/12 (83%)

[ask] Next up: NC(=O)C1c2[nH]c3ccc(Cl)cc3c2C2CCC1C2 (stereo not shown) [Compound 5a]
[reply] 9/12 (75%)

[ask] Next up: NC(=O)C1CCCc2c1[nH]c1ccc(Cl)cc21 (stereo not shown) [Compound 2]
[reply] 10/12 (83%)

====

Tested on: HaCat cells
EXPERIMENT_DESCRIPTION: m6A methylation level of human HaCat keratinocytes, EpiQuik m6A RNA methylation quantification kit (Example 20)
Type: cell-based
MEASUREMENT_CONTEXT: HaCat cells, 50 nM sorafenib + 400 nM test compound, 24 hours
This section presents compounds with their documented m6A fold change relative to control group 1 values.
Just the number, please, no unit attached.

Use these answered entries as a reference point.
[ask] Can you share its m6A fold change relative to control group 1? I mean this compound: NC(=O)C1CCCc2c1[nH]c1ccc(Cl)c(F)c21 (stereo not drawn) [Compound 3a]
[reply] 3.3

[ask] Next up: CN1CCC(C(N)=O)c2[nH]c3ccc(Cl)cc3c21 (stereo not drawn) [Compound 8]
[reply] 2.5

[ask] Next up: CN1CC[C@@H](C(N)=O)c2[nH]c3ccc(Cl)cc3c21 [Compound 8a]
[reply] 4.0

[ask] Next up: NC(=O)C1CCCc2c1[nH]c1ccc(F)cc21 (stereo not drawn) [Compound 1]
[reply] 2.9

[ask] Next up: NC(=O)C1CCCc2c1[nH]c1cc(F)c(Cl)cc21 (stereo not drawn) [Compound 3b]
[reply] 3.3

[ask] Next up: NC(=O)C1c2[nH]c3ccc(Cl)cc3c2C2CCC1C2 (stereo not drawn) [Compound 5]
[reply] 2.4

Others:
[ask] Can you share its m6A fold change relative to control group 1? I mean this compound: NC(=O)C1CCC(F)c2c1[nH]c1ccc(Cl)cc21 (stereo not drawn) [Compound 7]
[reply] 3.3

[ask] Next up: NC(=O)C1CCCc2c1[nH]c1cc(Nc3ccccc3)c(Cl)cc21 (stereo not drawn) [Compound 9]
[reply] 3.5

[ask] Next up: CN1CC[C@H](C(N)=O)c2[nH]c3ccc(Cl)cc3c21 [Compound 8b]
[reply] 1.0

[ask] Next up: NC(=O)C1CCCc2c1[nH]c1ccc(Cl)cc21 (stereo not drawn) [Compound 2]
[reply] 2.4

[ask] Next up: CC1CCC(C(N)=O)c2[nH]c3ccc(Cl)cc3c21 (stereo not drawn) [Compound 6]
[reply] 3.4

[ask] Next up: NC(=O)c1cccnc1 [Nicotinamide, nicotinamide]
[reply] 4.7

====

Tested on: paw plantar skin of rats
EXPERIMENT_DESCRIPTION: Rat models with hand-foot skin reaction, topical ointment (Example 22)
Type: in vivo, SD rats
MEASUREMENT_CONTEXT: osimertinib 60 mg/kg; 10% compound ointment on left paw; right paw (blank matrix ointment); 30 days
This section presents molecules with their documented Incidence rate values.

Use these answered entries as a reference point.
[ask] Can you share its Incidence rate? I mean this molecule: NC(=O)C1c2[nH]c3ccc(Cl)cc3c2C2CCC1C2 (stereo not shown)
[reply] 1/12 (8%)

[ask] Next up: NC(=O)[C@H]1CCCc2c1[nH]c1ccc(Cl)cc21
[reply] 3/12 (25%)

[ask] Next up: CN1CC[C@H](C(N)=O)c2[nH]c3ccc(Cl)cc3c21
[reply] 0/12 (0%)

Others:
[ask] Can you share its Incidence rate? I mean this molecule: NC(=O)C1CCCc2c1[nH]c1ccc(Cl)cc21 (stereo not shown)
[reply] 3/12 (25%)

====

This section presents compounds with their documented m6A methylation level of HaCat cells, increase compared with blank control group values.
Test system: HaCat cells
EXPERIMENT_DESCRIPTION: m6A methylation level of drug-treated HaCat keratinocytes by nanopore sequencing (Example 14)
Assay type: cell-based, human
MEASUREMENT_CONTEXT: 50 nM drug, 24 hours
The response must be a number in times with no trailing unit.

Use these answered entries as a reference point.
[ask] Can you share its m6A methylation level of HaCat cells, increase compared with blank control group? I mean this compound: CC(=O)O[C@@]12CO[C@@H]1C[C@H](O)[C@@]1(C)C(=O)[C@H](O)C3=C(C)[C@@H](OC(=O)[C@H](O)[C@@H](NC(=O)OC(C)(C)C)c4ccccc4)C[C@@](O)([C@@H](OC(=O)c4ccccc4)[C@H]21)C3(C)C
[reply] 3.97

[ask] Next up: CCCCCOC(=O)Nc1nc(=O)n([C@@H]2O[C@H](C)[C@@H](O)[C@H]2O)cc1F
[reply] 6.01

[ask] Next up: C=CC(=O)Nc1cc(Nc2nccc(-c3cn(C)c4ccccc34)n2)c(OC)cc1N(C)CCN(C)C [Osimertinib, osimertinib, reference compound]
[reply] 5.13

Alright, here's another compound for you.
[ask] Can you share its m6A methylation level of HaCat cells, increase compared with blank control group? I mean this compound: CNC(=O)c1cc(Oc2ccc(NC(=O)Nc3ccc(Cl)c(C(F)(F)F)c3)cc2)ccn1 [Sorafenib, sorafenib, reference compound]
[reply] 5.05

====

Test system: paw plantar skin of rats
EXPERIMENT_DESCRIPTION: Rat models with hand-foot skin reaction, topical ointment (Example 22)
Assay type: in vivo, SD rats
MEASUREMENT_CONTEXT: afatinib 50 mg/kg; 3% compound ointment on left paw; right paw (blank matrix ointment); 30 days
PARAMETER: Incidence rate

Use these answered entries as a reference point.
[ask] Can you share its Incidence rate? I mean this compound: NC(=O)C1c2[nH]c3ccc(Cl)cc3c2C2CCC1C2 (stereo not shown) [Compound 5a]
[reply] 4/12 (33%)

[ask] Next up: NC(=O)[C@H]1CCCc2c1[nH]c1ccc(Cl)cc21 [Compound 2b]
[reply] 4/12 (33%)

[ask] Next up: NC(=O)C1CCCc2c1[nH]c1ccc(Cl)cc21 (stereo not shown) [Compound 2]
[reply] 5/12 (42%)

Alright, here's another compound for you.
[ask] Can you share its Incidence rate? I mean this compound: CN1CC[C@H](C(N)=O)c2[nH]c3ccc(Cl)cc3c21 [Compound 8b]
[reply] 4/12 (33%)

The values you see were collected from patent US20260226006A1.
